# measurement_target: murine CCR2 (Mus musculus, UniProt P51683)
# Construct: host or cells: U2OS β-arrestin cell line
# Sequence (P51683 whole entry): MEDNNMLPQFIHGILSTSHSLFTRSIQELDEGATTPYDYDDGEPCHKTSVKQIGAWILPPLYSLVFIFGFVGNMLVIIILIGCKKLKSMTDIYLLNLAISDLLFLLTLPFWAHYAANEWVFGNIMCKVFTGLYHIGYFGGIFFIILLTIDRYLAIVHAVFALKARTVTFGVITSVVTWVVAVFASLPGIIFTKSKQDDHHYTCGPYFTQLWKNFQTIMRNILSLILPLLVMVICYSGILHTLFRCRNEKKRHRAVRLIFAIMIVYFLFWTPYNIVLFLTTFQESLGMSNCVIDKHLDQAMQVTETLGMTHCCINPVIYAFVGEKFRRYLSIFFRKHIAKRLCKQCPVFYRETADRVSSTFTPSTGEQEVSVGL
# protocol_summary: Functional β-arrestin recruiting test with murine MCP-1 (B-2b)
# Assay type: cell-based
# condition_description: U2OS β-arrestin cell line transfected with murine CCR2; agonist murine MCP-1; in some cases means of several determinations
parameter_measured: IC50 (nM)

Here are 5 molecules together with their reported answers.
O=c1[nH]c(-c2ncccc2-c2ccccc2)nc(C(F)(F)F)c1Oc1ccc(Cl)c(C(F)(F)F)c1 :: 828
O=c1[nH]c(-n2cccn2)nc(C(F)(F)F)c1Oc1ccc(Cl)c(Cl)c1 :: 112
O=c1[nH]c(-n2ccc(C(F)(F)F)n2)nc(C(F)(F)F)c1Oc1ccc(Cl)c(Cl)c1 :: 6940
CC(C)Oc1ccnc(-c2nc(C(F)(F)F)c(Oc3ccc(Cl)c(C(F)(F)F)c3)c(=O)[nH]2)c1 :: 1340
Cc1ccc(Oc2c(C(F)(F)F)nc(-c3cc[nH]n3)[nH]c2=O)cc1Cl :: 47

P: O=c1[nH]c(-c2ncccc2C(F)(F)F)nc(C(F)(F)F)c1Oc1ccc(Cl)c(C(F)(F)F)c1
Q: O=c1[nH]c(-c2cccnc2)nc(C(F)(F)F)c1Oc1ccc(Cl)c(C(F)(F)F)c1
R: Nc1ccc(-c2nc(C(F)(F)F)c(Oc3ccc(Cl)c(Cl)c3)c(=O)[nH]2)nc1
S: Cn1ccc(-c2nc(C(F)(F)F)c(Oc3ccc(Cl)c(Cl)c3)c(=O)[nH]2)n1
query: Sort entries by IC50 from minimum to maximum value. Rank them, then answer with their labels in that order.
result: R, S, P, Q
